Collected optical density values appear next to each entry.
Target: human Fc (human)
Assay: ELISA, negative control
The reply should be a number in OD, with the unit left off.

Examples with their reported optical density follow.
374_G01 (antibody, V domains shown) VH: EVQLLESGGGLVQPGGSLRLSCAASGFTFDSYSMNWVRQAPGKGLEWVSNINYNSGYTSYADSVKGRFTISRDNSKNTLYLQMNSLRAEDTAVYYCARSATWHDTHLDYWGQGTLVTVSS VL: DIQMTQSPSSLSASVGDRVTITCRASQSILTYVNWYQQKPGKAPKLLIYATTSRHSGVPSRFSGSGSGTDFTLTISSLQPEDFATYYCQQSYNLPLTFGGGTKVEIK    0.161
374_B02 (antibody, V domains shown) VH: EVQLLESGGGLVQPGGSLRLSCAASGFTFDSYSMHWVRQAPGKGLEWVAGINYNSGYTSYADSVKGRFTISRDNSKNTLYLQMNSLRAEDTAVYYCARAANWHDTHLDYWGQGTLVTVSS VL: DIQMTQSPSSLSASVGDRVTITCRASQSIISYLNWYQQKPGKAPKLLIYAATSRASGVPSRFSGSGSGTDFTLTISSLQPEDFATYYCQQSYDSPLTFGGGTKVEIK    0.179

--- query ---
Please fill in: optical density reported for 368_B11 (antibody, V domains shown) VH: EVQLLESGGGLVQPGGSLRLSCAASGFTFDSYGMHWVRQAPGKGLEWVSGINYNGGYKSYADSVKGRFTISRDNSKNTLYLQMNSLRAEDTAVYYCARAANWHDTHLDYWGQGTLVTVSS VL: DIQMTQSPSSLSASVGDRVTITCRASQSILSYLNWYQQKPGKAPKLLIYAASSLQSGVPSRFSGSGSGTDFTLTISSLQPEDFATYYCQQSYDSPLTFGGGTKVEIK = 0.286

meta.source: patent US20210380703A1
